// reported cytotoxicity at 10 µM per item
experiment: Toxicity liver stage against HepG2, at 10uM; format: cell-based; design: test concentration 10 uM, cell line HepG2-A16-CD81EGFP; conditions: human, HepG2-A16-CD81EGFP cells; read-out: INHIBITION

compound	output unit	cytotoxicity at 10 µM
CC(=O)NCC(=O)N1CCOCC(Cc2ccc3c(ccn3C)c2)C1 (centres undefined)	%	1.89
Cc1cc(N2CCC(O)CC2)nc(C)n1	%	-74.7
CCc1ccc(C(=O)N2CCCCC2CNS(C)(=O)=O)o1 (centres undefined)	%	-0.95
CC(C)CN1CCC2(CCN(CC3CC3)CC2)C1=O	%	7.37
CC(C)NC(=O)N1C[C@@H]2C[C@H](C(=O)NCc3ccccc3)[C@H](C1)O2	%	-0.594
C[C@H]1C(=O)NC[C@H]2CN(CCc3ccccc3)C[C@H]21	%	2.64
Cc1csc(N2CCC(NCC3(O)CCc4ccccc43)CC2)n1 (centres undefined)	%	0.455
O=C(c1ccccn1)N1CCc2ncnc(N3CCOCC3)c2CC1	%	0.661
O=C(c1cnc(O)cn1)N1CCCC1c1nc2cc(F)ccc2[nH]1 (centres undefined)	%	7.72
CC(C)OCCS(=O)(=O)N1CCCC1c1cccc(N(C)C)c1 (centres undefined)	%	-1.22
CC(=O)N1CCCC1c1ccc(-c2c(C)noc2C)cn1 (centres undefined)	%	2.88
NC(=O)C1=NC2=NS(=O)(=O)c3ccccc3N2N1Cc1ccc(Br)cc1	%	8.34
CC(=O)N(C)C(c1cccnc1)c1ccc(F)c(F)c1 (centres undefined)	%	-7.69
CCN(Cc1csc(CS(C)(=O)=O)n1)c1cccc(CO)c1	%	-10
Cc1nc(CN(C)C2CCN(Cc3ccc4ccccc4n3)C2)no1 (centres undefined)	%	-2.23
CCC(C)(COc1ncccc1Cl)NCC(=O)Nc1ccc(Br)cn1 (centres undefined)	%	-2.89
Cc1n[nH]c2c1C(c1ccc(O)c(Cl)c1)SCC(=O)N2 (centres undefined)	%	10.4
CCN1CCC2(C=C(C(=O)NC3CC3)c3ccccc32)CC1	%	6.2
Cc1cnc(N2CCC3(CC2)CC(NC(=O)C(C)C)CO3)nc1 (centres undefined)	%	8.19
O=c1cc(C2CCNCC2)nc(CCCc2ccccc2)[nH]1	%	2.03
CN1[C@H](Cn2cccn2)C[C@@H]2CN(Cc3cccs3)CC[C@@H]21	%	11.9
CCN(CCOC)C(=O)CCc1scnc1C	%	-15.8
COc1cc(N2CCN(CC3CC3)c3nc(C)ccc3C2)ncn1	%	-101
O=S(=O)(NCCNc1ccc(-n2cccc2)nn1)c1cccs1	%	-12.3
